assay: Critical aggregation concentration by Nile Red fluorescence; format: physicochemical; details: Nile Red 1.0 µM, distilled water
propertyName: CAC (µM)

| compound | CAC, µM |
| --- | --- |
| O=C(CCCCC1CCSS1)NCCOCCOCCOCCOCCC(=O)NC(Cc1cccc(B(O)O)c1)C(=O)O (stereo not shown) [L^mB-3] | 274 |
| O=C(CCCCC1CCSS1)NCCOCCOCCC(=O)NC(Cc1ccc(B(O)O)cc1)C(=O)O (stereo not shown) [L^pB-2] | 248 |
| O=C(CCCCC1CCSS1)NCCOCCOCCOCCOCCOCCOCCOCCOCCC(=O)NC(Cc1cccc(B(O)O)c1)C(=O)O (stereo not shown) [L^mB-4] | 280 |
| O=C(CCCCC1CCSS1)NCCOCCOCCC(=O)NC(Cc1cccc(B(O)O)c1)C(=O)O (stereo not shown) [L^mB-2] | 254 |
| O=C(CCCCC1CCSS1)NCCOCCC(=O)NC(Cc1cccc(B(O)O)c1)C(=O)O (stereo not shown) [L^mB-1] | 256 |
| O=C(CCCCC1CCSS1)NCCOCCOCCOCCOCCOCCOCCOCCOCCC(=O)NC(Cc1ccc(B(O)O)cc1)C(=O)O (stereo not shown) [L^pB-4] | 277 |
| O=C(CCCCC1CCSS1)NCCOCCC(=O)NC(Cc1ccc(B(O)O)cc1)C(=O)O (stereo not shown) [L^pB-1] | 243 |

----------
test: DLS detection of grain size, PDI and zeta potential of vesicles; type: physicochemical; conditions: vesicles of the derivative, depolymerization and assembly repeated three times
propertyName: d(nm)

| compound | d(nm) |
| --- | --- |
| O=C(CCCCC1CCSS1)NCCOCCC(=O)NC(Cc1cccc(B(O)O)c1)C(=O)O (stereo not drawn) [L^mB-1] | 105.3 |

a = O=C(CCCCC1CCSS1)NCCOCCC(=O)NC(Cc1ccc(B(O)O)cc1)C(=O)O (stereo not drawn) [L^pB-1]
b = O=C(CCCCC1CCSS1)NCCOCCOCCC(=O)NC(Cc1ccc(B(O)O)cc1)C(=O)O (stereo not drawn) [L^pB-2]
Qu. Given the two records a and b , choose the one whose d(nm) value is lower. Kindly give the label for the entry you pick.
Ans. a

----------
test: DLS detection of grain size, PDI and zeta potential of vesicles; assay type: physicochemical; conditions: vesicles of the derivative, depolymerization and assembly repeated three times
propertyName: zeta potential (mV)

| compound | unitTag | zeta potential (mV) |
| --- | --- | --- |
| O=C(CCCCC1CCSS1)NCCOCCC(=O)NC(Cc1ccc(B(O)O)cc1)C(=O)O (stereo not shown) [L^pB-1] | mV | -32.5 |
| O=C(CCCCC1CCSS1)NCCOCCOCCC(=O)NC(Cc1ccc(B(O)O)cc1)C(=O)O (stereo not shown) [L^pB-2] | mV | -30.9 |
| O=C(CCCCC1CCSS1)NCCOCCOCCC(=O)NC(Cc1cccc(B(O)O)c1)C(=O)O (stereo not shown) [L^mB-2] | mV | -28.61 |
| O=C(CCCCC1CCSS1)NCCOCCC(=O)NC(Cc1cccc(B(O)O)c1)C(=O)O (stereo not shown) [L^mB-1] | mV | -30.7 |
| O=C(CCCCC1CCSS1)NCCOCCOCCOCCOCCOCCOCCOCCOCCC(=O)NC(Cc1cccc(B(O)O)c1)C(=O)O (stereo not shown) [L^mB-4] | mV | -35.2 |
| O=C(CCCCC1CCSS1)NCCOCCOCCOCCOCCOCCOCCOCCOCCC(=O)NC(Cc1ccc(B(O)O)cc1)C(=O)O (stereo not shown) [L^pB-4] | mV | -29.35 |
| O=C(CCCCC1CCSS1)NCCOCCOCCOCCOCCC(=O)NC(Cc1cccc(B(O)O)c1)C(=O)O (stereo not shown) [L^mB-3] | mV | -35.20 |
